Biological target: DRB1*0701 (Homo sapiens, UniProt P01903+P01911, A100R/A102G/A103Q/D57E/D86V/E43K/F76Y/K127E/L162R/M171V/P40G/Q125H/Q99D/R33Q/R42Y/R54Q/S133A/S66F/T210M/V115G/Y107V/Y59L/Y89S)
Construct: Epstein-Barr virus (EBV) transformed homozygous cell lines were used as sources of human HLA Class II molecules; endogenous in cells; host or cells: PITOUT (EBV-transformed homozygous B cell line)
Test: Class II peptide-binding assay DRB1*0701 (DR7)
Ends that are not written are not given here.
measure-name: pIC50
One number for each entry, as −log10 of the molar value.

Input line: // returns reported pIC50 for input `DIEKKIAKMEKASSVFNVVNS`
Output line: 5.60

---

Molecular target: DRB1*1501 (Homo sapiens, UniProt P01903+P01911)
Construct: expressed in transfected cells; host or cells: transfected fibroblasts L466.1
Assay: Class II peptide-binding assay DRB1*1501 (DR2w2b)
Settings: known HLA-DR and DQ restricted epitopes, Table 6; read-out: Binding capacity (IC50 nM) DRB1*1501
Ends that are not written are not given here.
measure-name: IC50

Input line: Request: IC50, test system DRB1*1501 (Homo sapiens, UniProt P01903+P01911), entry `YSGPLKAEIAQRLEDV`
Output line: > 20000 nM

---

Molecular target: DQB1*0301 (Homo sapiens, UniProt P01909+P01920)
Sequence (P01920 33-261, other chains not shown): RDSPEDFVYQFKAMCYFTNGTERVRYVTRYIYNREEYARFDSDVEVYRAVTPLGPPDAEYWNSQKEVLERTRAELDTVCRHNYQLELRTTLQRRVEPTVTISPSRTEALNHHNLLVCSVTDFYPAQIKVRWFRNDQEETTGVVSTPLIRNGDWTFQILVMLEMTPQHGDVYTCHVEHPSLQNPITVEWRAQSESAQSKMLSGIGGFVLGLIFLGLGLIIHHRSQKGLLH
Test: Class II peptide-binding assay DQB1*0301
Details: IFNb 15-mer peptides, Table 5D
pIC50: −log10 of the molar value. Ends that are not written are not given here.
I would appreciate it if you labelled entries 1.0 when pIC50 is 5 or higher, otherwise 0.0.

# biopolymer-sequence, answer-label
records = [
    ("QKEDAAVTIYEMLQN", 1.0),
    ("GRLEYCLKDRRNFDI", 1.0),
    ("CLKDRRNFDIPEEIK", 0.0),
]

Input line: Could you tell me if the measured pIC50 of `KEDSHCAWTIVRVEI` reaches 5 or more?
Output line: 1.0

---

Target: DRB1*0301 (Homo sapiens, UniProt P01903+P01911, A100K/A102G/A103R/A169T/F55Y/I96L/K41T/L162R/M171V/P40S/Q125H/Q178H/Q39Y/R42S/S66N/T106N/T262R/W38E/Y61H)
Construct: Epstein-Barr virus (EBV) transformed homozygous cell lines were used as sources of human HLA Class II molecules; endogenous in cells; host or cells: MAT (EBV-transformed homozygous B cell line)
Sequence (P01903 26-254, other chains not shown): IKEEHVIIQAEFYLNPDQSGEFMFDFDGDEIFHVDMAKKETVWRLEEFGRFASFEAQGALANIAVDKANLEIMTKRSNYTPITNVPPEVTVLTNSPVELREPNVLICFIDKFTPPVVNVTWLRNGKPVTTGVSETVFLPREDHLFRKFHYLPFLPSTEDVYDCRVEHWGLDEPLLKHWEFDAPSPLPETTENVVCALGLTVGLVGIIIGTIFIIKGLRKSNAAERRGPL
Assay: Class II peptide-binding assay DRB1*0301 (DR3)
Conditions: known HLA-DR and DQ restricted epitopes, Table 6
Ends that are not written are not given here.
Task for the reader: assign each of the following sequences its reported IC50.

# biopolymer-sequence, IC50
data = [
    ("YSGPLKAEIAQRLEDV", "11.3 µM"),
]

Input line: // query IC50 value for entry `FNNFTVSFWLRVPKVSASHLEQY`
Output line: > 20 µM

---

Molecular target: DRB1*0301 (Homo sapiens, UniProt P01903+P01911, A100K/A102G/A103R/A169T/F55Y/I96L/K41T/L162R/M171V/P40S/Q125H/Q178H/Q39Y/R42S/S66N/T106N/T262R/W38E/Y61H)
Construct: Epstein-Barr virus (EBV) transformed homozygous cell lines were used as sources of human HLA Class II molecules; endogenous in cells; host or cells: MAT (EBV-transformed homozygous B cell line)
Assay: Class II peptide-binding assay DRB1*0301 (DR3)
Settings: known HLA-DR and DQ restricted epitopes, Table 6
Please provide measured IC50 for the entries that follow.

Check out these entries, answers already filled in.
# structure, IC50
data = [
    ("CC[C@H](C)[C@H](NC(=O)[C@H](CO)NC(=O)[C@H](CCC(=O)O)NC(=O)[C@H](CC(C)C)NC(=O)[C@H](C)NC(=O)[C@@H](N)CC(=O)O)C(=O)N[C@@H](CCSC)C(=O)N[C@H](C(=O)N[C@H](C(=O)N[C@@H](CCCCN)C(=O)N[C@@H](CO)C(=O)N[C@H](C(=O)N[C@@H](CO)C(=O)N[C@@H](Cc1ccccc1)C(=O)N[C@@H](CCCNC(=N)N)C(=O)O)C(C)C)[C@@H](C)O)[C@@H](C)O", "10.6 µM"),
    ("CC[C@H](C)[C@H](NC(=O)[C@H](CCCNC(=N)N)NC(=O)[C@H](Cc1c[nH]c2ccccc12)NC(=O)[C@@H](NC(=O)[C@H](C)NC(=O)CNC(=O)[C@H](Cc1c[nH]c2ccccc12)NC(=O)[C@H](CO)NC(=O)[C@@H](N)CCC(=O)O)C(C)C)C(=O)N[C@@H](CC(=O)O)C(=O)N[C@H](C(=O)N1CCC[C@H]1C(=O)N[C@@H](CC(=O)O)C(=O)N[C@@H](CCCCN)C(=O)N[C@@H](CC(C)C)C(=O)N[C@H](C(=O)NCC(=O)N1CCC[C@H]1C(=O)N[C@@H](Cc1ccccc1)C(=O)N[C@H](C(=O)O)[C@@H](C)O)[C@@H](C)O)[C@@H](C)O", "3.18 µM"),
    ("CC[C@H](C)[C@H](NC(=O)[C@@H](NC(=O)[C@H](CCCCN)NC(=O)[C@H](CCC(=O)O)NC(=O)[C@H](CC(C)C)NC(=O)[C@H](CC(C)C)NC(=O)[C@@H]1CCCN1C(=O)[C@H](CC(C)C)NC(=O)[C@@H](N)CC(C)C)C(C)C)C(=O)NCC(=O)N[C@@H](C)C(=O)NCC(=O)N[C@@H](CCCCN)C(=O)N1CCC[C@H]1C(=O)N[C@@H](CC(C)C)C(=O)O", "> 20 µM"),
    ("CC[C@H](C)[C@H](NC(=O)[C@H](Cc1ccc(O)cc1)NC(=O)[C@@H]1CCCN1C(=O)[C@H](CC(=O)O)NC(=O)[C@H](CCC(=O)O)NC(=O)[C@H](CC(C)C)NC(=O)[C@@H](NC(=O)[C@H](C)N)C(C)C)C(=O)N[C@@H](CC(C)C)C(=O)N[C@@H](CC(C)C)C(=O)N[C@H](C(=O)N[C@@H](CO)C(=O)N[C@@H](CO)C(=O)N[C@@H](CCCCN)C(=O)N[C@H](C(=O)N[C@@H](CO)C(=O)O)C(C)C)C(C)C", "> 20 µM"),
    ("CC[C@H](C)[C@H](NC(=O)[C@H](CC(=O)O)NC(=O)[C@H](CC(C)C)NC(=O)[C@H](Cc1ccc(O)cc1)NC(=O)[C@@H]1CCCN1C(=O)[C@@H](NC(=O)[C@@H](N)CC(=O)O)[C@@H](C)O)C(=O)N[C@H](C(=O)N[C@@H](Cc1ccc(O)cc1)C(=O)N[C@@H](Cc1c[nH]cn1)C(=O)N[C@@H](Cc1ccccc1)C(=O)N[C@H](C(=O)N[C@@H](CCSC)C(=O)N[C@@H](CCC(N)=O)C(=O)N[C@@H](CCCNC(=N)N)C(=O)N[C@@H](CC(C)C)C(=O)N1CCC[C@H]1C(=O)N[C@@H](CC(C)C)C(=O)O)C(C)C)[C@@H](C)O", "0.068 µM"),
]

For the next question, use this molecule.
Input line: Consider the molecule shown here: `CC(C)C[C@H](NC(=O)[C@H](Cc1c[nH]cn1)NC(=O)[C@H](CC(=O)O)NC(=O)[C@H](CC(C)C)NC(=O)[C@@H](NC(=O)[C@H](CC(N)=O)NC(=O)[C@@H](N)CC(=O)O)C(C)C)C(=O)N[C@H](C(=O)NCC(=O)N[C@@H](CCCNC(=N)N)C(=O)N[C@@H](CO)C(=O)N[C@@H](CS)C(=O)O)[C@@H](C)O` What is its recorded IC50?
Output line: > 20 µM

---

Biological target: DRB1*0101 (Homo sapiens, UniProt P01903+P01911, A100R/D57E/F55L/F60I/F76Y/I96L/L162R/M171V/P40L/Q125E/R42F/V115G/Y59C)
Construct: Epstein-Barr virus (EBV) transformed homozygous cell lines were used as sources of human HLA Class II molecules; endogenous in cells; host or cells: LG2 (EBV-transformed homozygous B cell line)
Assay: Class II peptide-binding assay DRB1*0101 (DR1)
Ends that are not written are not given here.
measure-name: IC50 (nM)
Numbers only, in nM.

Example results:
# biopolymer-sequence, IC50 [nM]
records = [
    ("YSGPLKAEIAQRLEDV", 13),
    ("YTLLQAAPALDKLKLTGDEATGANI", 2.1),
    ("FNNFTVSFWLRVPKVSASHLEQY", 417),
]

Input line: Report IC50 for `DTGRKLFRVYSNFLR` please.
Output line: 18

---

Molecular target: DRB1*0301 (Homo sapiens, UniProt P01903+P01911, A100K/A102G/A103R/A169T/F55Y/I96L/K41T/L162R/M171V/P40S/Q125H/Q178H/Q39Y/R42S/S66N/T106N/T262R/W38E/Y61H)
Construct: Epstein-Barr virus (EBV) transformed homozygous cell lines were used as sources of human HLA Class II molecules; endogenous in cells; host or cells: MAT (EBV-transformed homozygous B cell line)
Experiment: Class II peptide-binding assay DRB1*0301 (DR3)
Ends that are not written are not given here.
measure-name: pIC50
One number for each entry, as −log10 of the molar value.

# biopolymer-sequence, pIC50
data = [
    ("DTGRKLFRVYSNFLR", 5.89),
]

Input line: Entry `YTLLQAAPALDKLKLTGDEATGANI` : reported pIC50 = ?
Output line: 5.69

Just for reference, patent US20070184519A1 is where these values come from.
